Entries and their Ki
Target: hQC (Homo sapiens, UniProt Q16769)
Sequence (Q16769 29-361): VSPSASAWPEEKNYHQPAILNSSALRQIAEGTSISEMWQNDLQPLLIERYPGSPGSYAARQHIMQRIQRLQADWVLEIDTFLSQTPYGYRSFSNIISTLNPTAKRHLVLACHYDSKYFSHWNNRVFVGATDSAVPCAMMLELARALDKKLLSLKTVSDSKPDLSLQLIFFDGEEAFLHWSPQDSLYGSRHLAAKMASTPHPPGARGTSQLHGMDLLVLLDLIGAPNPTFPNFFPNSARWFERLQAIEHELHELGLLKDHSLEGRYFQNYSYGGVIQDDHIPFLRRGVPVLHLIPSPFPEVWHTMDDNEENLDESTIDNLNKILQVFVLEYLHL

- molecule: "COC1=C(C)C(c2cccc(F)c2F)N(c2ccc3nc[nH]c3c2)C1=O (centres unmarked) [Example 8]"
  scale_unit: "nM"
  Ki: 20.9
- molecule: "COC1=C(C)[C@H](c2cccc(F)c2F)N(c2ccc3nc[nH]c3c2)C1=O (single isomer, unassigned) [Example 9]"
  scale_unit: "nM"
  Ki: 4.7
